- tested.system: VBP (VirD2-binding protein) (Agrobacterium fabrum, UniProt Q7CW19)
- Construct: full-length VBP with 6His tag (pET32a, E. coli BL21(DE3)); homodimer 75 kDa; predicted NT domain aa 10-133, HEPN domain aa 159-279
- Sequence (Q7CW19 entry or part of it): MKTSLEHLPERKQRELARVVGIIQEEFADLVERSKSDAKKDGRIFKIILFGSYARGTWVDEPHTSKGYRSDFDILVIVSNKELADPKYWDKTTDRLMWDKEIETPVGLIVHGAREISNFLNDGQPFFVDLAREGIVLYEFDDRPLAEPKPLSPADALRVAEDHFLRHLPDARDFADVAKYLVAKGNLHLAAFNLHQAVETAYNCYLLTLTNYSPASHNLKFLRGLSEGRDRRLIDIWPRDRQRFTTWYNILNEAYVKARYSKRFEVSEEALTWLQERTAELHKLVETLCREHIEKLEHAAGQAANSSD
- test.method.notes: isothermal titration calorimetry
reported.property: Kd (nM)
Answer in nM, number only, no unit symbol.

Which Kd value is on record for Nc1ncnc2c1ncn2[C@@H]1O[C@H](COP(=O)(O)OP(=O)(O)NP(=O)(O)O)[C@@H](O)[C@H]1O [AMPPNP] ? 2000

These measurements were taken from paper PMC3953389.
